The values you see were collected from the supplement of paper PMC12338614.

Parameter STK11 functional score: see the listing below.
B1: library; numbered along this chain (parent)
chain: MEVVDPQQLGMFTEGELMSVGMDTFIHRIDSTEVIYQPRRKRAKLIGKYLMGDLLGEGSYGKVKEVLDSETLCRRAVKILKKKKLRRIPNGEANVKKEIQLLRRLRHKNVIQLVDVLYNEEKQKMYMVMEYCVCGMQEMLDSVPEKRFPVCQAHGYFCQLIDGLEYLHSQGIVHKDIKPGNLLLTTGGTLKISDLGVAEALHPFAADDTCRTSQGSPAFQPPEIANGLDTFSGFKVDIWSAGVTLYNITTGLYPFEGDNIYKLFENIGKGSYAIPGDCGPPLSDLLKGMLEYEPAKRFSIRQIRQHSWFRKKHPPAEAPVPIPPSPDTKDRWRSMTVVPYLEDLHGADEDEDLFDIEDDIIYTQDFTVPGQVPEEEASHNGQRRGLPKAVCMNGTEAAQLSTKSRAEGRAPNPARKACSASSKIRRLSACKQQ

Variants of: B1
Assay: STK11 functional score (HeLa growth suppression), rescaled enrichment; synonymous median = 1, nonsense median = 0 (normalised score)
Settings: with HeLa; variant type: missense
Quick one: just the number, no unit, thanks!

INSERT INTO assay_data (variant_name, test_result) VALUES
  ('G288C', 0.989);

Please give the measured STK11 functional score for this variant: C151T 0.991

Moving on to the next variant: L263G 0.983

Moving on to the next variant: T395I 0.971
